Assay: Metabolic stability in human liver microsomes assessed as intrinsic clearance at 1 uM incubated upto 60 mins in presence of NADPH by LC-MS/MS analysis
Type: ADME, Microsome
Conditions: read-out: CLH
QUANTITY: microsomal CLint at 1 µM (µL/min/mg)
State the answer as a number, implicitly in µL/min/mg.

SMILES STRING: COc1cc(N(C(=O)CCl)c2ccc3c(c2)OCCO3)cc(OC)c1F
QUANTITY: microsomal CLint at 1 µM
UNIT LABEL: µL/min/mg
EXPERIMENTAL RESULT: 416

Alright, here's another molecule for you.
q: Need microsomal CLint at 1 µM of COc1cc(N(C(=O)CBr)c2ccc3c(c2)OCCO3)cc(OC)c1F , thanks.
a: 1740
